All figures here come from the supplement of paper PMC7125110.

B1: glmS ribozyme (parent)
chain: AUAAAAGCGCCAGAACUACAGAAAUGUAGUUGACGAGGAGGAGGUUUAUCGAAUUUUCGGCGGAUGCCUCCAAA

variants of: B1; assay: self-cleavage kobs at 2500 uM GlcN6P; higher = faster cleavage; RNA array; conditions: with glucosamine-6-phosphate
Variants at the floor of the assay were thinned out.
Measurement Kind: self-cleavage kobs at 2500 uM GlcN6P (s⁻¹)

{"Sequence Entry": "AUAAAAGCGCCAGAACUACAGAAAUGUAGUUUUCGAGGAGGAGGUUUAUCGAAUUUUCGGCGGAUGCCUCCAAA [G32U A33U]", "Measurement Kind": "self-cleavage kobs at 2500 uM GlcN6P", "Measurement Unit": "s⁻¹", "Modifier": "<", "Test Value": "1e-05"}
{"Sequence Entry": "AUAAAAGCGCCAGAACUACAGAAAUGUAGUUGACGAGGAGCAGGUUUAUCGCAUGUUCGCCGGAUGCUUCCAAA [G41C A52C U55G G60C C68U]", "Measurement Kind": "self-cleavage kobs at 2500 uM GlcN6P", "Measurement Unit": "s⁻¹", "Modifier": "<", "Test Value": "1e-05"}
{"Sequence Entry": "AUAAAAGCGCCAGAACUACAGAAAUGUAGUUGACUAGGAGGAGGAUUAUCGAAUUUUCGGCGCAUGCCUCGAAA [G35U U45A G63C C71G]", "Measurement Kind": "self-cleavage kobs at 2500 uM GlcN6P", "Measurement Unit": "s⁻¹", "Modifier": "<", "Test Value": "1e-05"}
{"Sequence Entry": "AUAAAAGCGCCAGAACUACAGAAAUGUAGUUGACGAGUAGGAGGUUUAUCGAAUUCUCGGCGGAAGCCUCCAAA [G38U U56C U65A]", "Measurement Kind": "self-cleavage kobs at 2500 uM GlcN6P", "Measurement Unit": "s⁻¹", "Modifier": "<", "Test Value": "1e-05"}
{"Sequence Entry": "AUAAAAGCGCCAGAACUACAGAAAUGUAGUUGACGAGGAGCAGGGUUAUCGAAUUUCCAGUGGAUGCCUCCAAA [G41C U45G U57C G59A C61U]", "Measurement Kind": "self-cleavage kobs at 2500 uM GlcN6P", "Measurement Unit": "s⁻¹", "Modifier": "<", "Test Value": "1e-05"}
{"Sequence Entry": "AUAAAAGCGCUAGAACUACAGAAAUGUACUUGACGAGGAGGAGUUUUAUCGAAUUUUCGGCGUACGUCUCUAAA [C11U G29C G44U G63U U65C C67U C71U]", "Measurement Kind": "self-cleavage kobs at 2500 uM GlcN6P", "Measurement Unit": "s⁻¹", "Modifier": "<", "Test Value": "1e-05"}
{"Sequence Entry": "AUAAAAGCGCCAGAGCUACAGAAAUGUAGUUGACGAGGAGGAGGUUUAUCCAAUUUUCGGCGGAUGCCUCCAAA [A15G G51C]", "Measurement Kind": "self-cleavage kobs at 2500 uM GlcN6P", "Measurement Unit": "s⁻¹", "Modifier": "<", "Test Value": "1e-05"}
{"Sequence Entry": "AUAAAAGCGCCAGAACUACAGAAAUGUAGUUGACGAGGAGGAGGUUUCUCAAAUUUUCGGCGGAUGCCUCCAAA [A48C G51A]", "Measurement Kind": "self-cleavage kobs at 2500 uM GlcN6P", "Measurement Unit": "s⁻¹", "Modifier": "<", "Test Value": "1e-05"}
{"Sequence Entry": "AUAAAAGCGCCAGAAUUACAGAAAUGUAGAUGACGAGGAGGAGGUUUAUCGAAUUUUCGGCGGAUGCCUCCAAA [C16U U30A]", "Measurement Kind": "self-cleavage kobs at 2500 uM GlcN6P", "Measurement Unit": "s⁻¹", "Modifier": "=", "Test Value": 0.00171}
{"Sequence Entry": "AUAAAAGCGCCAGAACUACAGAAAUGUAGUUGACGAGGGGGAGGUUUAUCGAAUUUUCGGCGGAUGCCUCAAAA [A39G C71A]", "Measurement Kind": "self-cleavage kobs at 2500 uM GlcN6P", "Measurement Unit": "s⁻¹", "Modifier": "=", "Test Value": 0.00277}
{"Sequence Entry": "AUAAAAGCGCCAGAACUACAGAAAUGUAGUUGACGAGGAGGAGGUUCAUCGAUUUAUCCGCGGAUGCCUCCAAA [U47C A53U U56A G59C]", "Measurement Kind": "self-cleavage kobs at 2500 uM GlcN6P", "Measurement Unit": "s⁻¹", "Modifier": "<", "Test Value": "1e-05"}
{"Sequence Entry": "AUAAAAGCGCCCGAACUACAGAAAUGUAGUUGACGAGGAGGAGGUUUAGCGAAUUUUCGGCGGAUGCCUCCAAA [A12C U49G]", "Measurement Kind": "self-cleavage kobs at 2500 uM GlcN6P", "Measurement Unit": "s⁻¹", "Modifier": "=", "Test Value": 0.000216}
{"Sequence Entry": "AUAAAAGCGCCAGAACUACAGAAAUGUAGUUGACGAGGAAGAGGUUUAUCGAAUUUUCGGCGGAUGCCACCAAA [G40A U69A]", "Measurement Kind": "self-cleavage kobs at 2500 uM GlcN6P", "Measurement Unit": "s⁻¹", "Modifier": "<", "Test Value": "1e-05"}
{"Sequence Entry": "AUAAAAGCACCAGAACUACAGAAAUGUAGUUGACUAGGAGGAGGUUAAUCGAAUUUUCGGCGGAUGCCUUCAAA [G9A G35U U47A C70U]", "Measurement Kind": "self-cleavage kobs at 2500 uM GlcN6P", "Measurement Unit": "s⁻¹", "Modifier": "<", "Test Value": "1e-05"}
{"Sequence Entry": "AUAAAAGCGCCAGAACUACAGAAAUGUAGUGGACGAGGAGGAGGCUUAUCGAGUUUUCGGCGGAUGCCUCCAAA [U31G U45C A53G]", "Measurement Kind": "self-cleavage kobs at 2500 uM GlcN6P", "Measurement Unit": "s⁻¹", "Modifier": "=", "Test Value": 0.000528}
{"Sequence Entry": "AUAAAAGCGCCAGAAGUACAGAAAUGUAGUGGACGAGGAGGAGGUUUAUCGAAGUUUCGGCGGAUGCCUCCAAA [C16G U31G U54G]", "Measurement Kind": "self-cleavage kobs at 2500 uM GlcN6P", "Measurement Unit": "s⁻¹", "Modifier": "=", "Test Value": 0.000327}
{"Sequence Entry": "AUAAAAGCGCCAGAACUACAGAAAUGUAGUUGACGAGGAGGGGGUUUAUCGAAUAUUCGGCGCAUGCCUCCAAA [A42G U55A G63C]", "Measurement Kind": "self-cleavage kobs at 2500 uM GlcN6P", "Measurement Unit": "s⁻¹", "Modifier": "<", "Test Value": "1e-05"}
{"Sequence Entry": "AUAAAAGCGCCAGUACUACAGAAAUGUAGUGGACGAGGAGGAGGUUUAUCGAAUUUUCGGCGGAUGACUCCAAA [A14U U31G C67A]", "Measurement Kind": "self-cleavage kobs at 2500 uM GlcN6P", "Measurement Unit": "s⁻¹", "Modifier": "=", "Test Value": 0.000746}
{"Sequence Entry": "AUAAAAGCGCAAGAACUACAGAAAUGUAGUUGACGAGCAGGAGGUUUAUCGAAUUUUCGGCGGAUGCCUCCAAA [C11A G38C]", "Measurement Kind": "self-cleavage kobs at 2500 uM GlcN6P", "Measurement Unit": "s⁻¹", "Modifier": "<", "Test Value": "1e-05"}
{"Sequence Entry": "AUAAAAGCGCCAGAACUACAGAAAUGUAGUUGACGAGGAGGAGGUUUAUCGAAUUUUCGGCGCCUGACUCCAAA [G63C A64C C67A]", "Measurement Kind": "self-cleavage kobs at 2500 uM GlcN6P", "Measurement Unit": "s⁻¹", "Modifier": "<", "Test Value": "1e-05"}
{"Sequence Entry": "AUAAAAGGGCCAGAACUACAGAAAUGUAGUUGACGAGAAGGAGGUUUAUCGAAUUUUGGGCGGAUGGCUCCAAA [C8G G38A C58G C67G]", "Measurement Kind": "self-cleavage kobs at 2500 uM GlcN6P", "Measurement Unit": "s⁻¹", "Modifier": "=", "Test Value": 0.000435}
{"Sequence Entry": "AUAAAAGCGCCAGAACUACAGAAAUGUAGUUGACGAGGCGGAGGUAUAUCGAAUUUUCGGCGGAUGCCUCCAAA [A39C U46A]", "Measurement Kind": "self-cleavage kobs at 2500 uM GlcN6P", "Measurement Unit": "s⁻¹", "Modifier": "=", "Test Value": 0.000209}
{"Sequence Entry": "AUAAAAGCGCCAGAACUACAGAAAUGUAGUUGGCGAGGAGGAGGUUGAUCGAAUUUUCGGCGGAUACCUCCAAA [A33G U47G G66A]", "Measurement Kind": "self-cleavage kobs at 2500 uM GlcN6P", "Measurement Unit": "s⁻¹", "Modifier": "<", "Test Value": "1e-05"}
{"Sequence Entry": "AUAAAAGCGCCGGAACUACAGAAAUGUAGUUGACGAGGAGGAGGUUUAUCGAAUUUUGGGCGGAUGACUCCAAA [A12G C58G C67A]", "Measurement Kind": "self-cleavage kobs at 2500 uM GlcN6P", "Measurement Unit": "s⁻¹", "Modifier": "=", "Test Value": "9.94e-05"}
{"Sequence Entry": "AUAAAAGCGCCAGCACUACAGAAAUGUAGUUGAGGAGGAGGAGGUUUCUCGAAUUUUCGGCGGAUGCCUCCAAA [A14C C34G A48C]", "Measurement Kind": "self-cleavage kobs at 2500 uM GlcN6P", "Measurement Unit": "s⁻¹", "Modifier": "<", "Test Value": "1e-05"}
{"Sequence Entry": "AUAAAAGCACCAGAACUACAGAAAUGUAGUUGACGGGGAGGAGGUUUAUCGAAUUUUCGGCGGCUGCCUCCAAA [G9A A36G A64C]", "Measurement Kind": "self-cleavage kobs at 2500 uM GlcN6P", "Measurement Unit": "s⁻¹", "Modifier": "<", "Test Value": "1e-05"}
{"Sequence Entry": "AUAAAAGCGCCAGAACUACAGAAAUGUAGUUGACGAGGAGGAGGUUUAUCUAAUUUUCGGCGCAUGCCUCCAAA [G51U G63C]", "Measurement Kind": "self-cleavage kobs at 2500 uM GlcN6P", "Measurement Unit": "s⁻¹", "Modifier": "<", "Test Value": "1e-05"}
{"Sequence Entry": "AUAAAAGCGCCAGAACUACAGAAAUGUAGUUGACGAGGGGGAGUUUUAUCGAAUUUUCGGCGGAUGCCUCCAAA [A39G G44U]", "Measurement Kind": "self-cleavage kobs at 2500 uM GlcN6P", "Measurement Unit": "s⁻¹", "Modifier": "=", "Test Value": 0.000853}
{"Sequence Entry": "AUAAAAGGGCCAGAACUACAGAAAUGUAGUUGCCGAGGAGGAGGUUUAUCGAAUGUUCGGCUGAUGACUCCAAA [C8G A33C U55G G62U C67A]", "Measurement Kind": "self-cleavage kobs at 2500 uM GlcN6P", "Measurement Unit": "s⁻¹", "Modifier": "<", "Test Value": "1e-05"}
{"Sequence Entry": "AUAAAAGCGCCAGAACUACAGAAAUGUAGUUGACGAGGAGGAGGUUUAUCGAAUUUUCGGCGGAUAUCUCCAAA [G66A C67U]", "Measurement Kind": "self-cleavage kobs at 2500 uM GlcN6P", "Measurement Unit": "s⁻¹", "Modifier": "=", "Test Value": 0.0016}
{"Sequence Entry": "AUAAAAGCGCCAGAACUACAGAAAUGUAAUUGACGAGGAGGACGUUUAUCGAAUUUUCGGCGGAUGCGUCCAAA [G29A G43C C68G]", "Measurement Kind": "self-cleavage kobs at 2500 uM GlcN6P", "Measurement Unit": "s⁻¹", "Modifier": "=", "Test Value": 0.00377}
{"Sequence Entry": "AUAAAAGCGCUAGAACUACAGAAAUGUAGUUGACGAGGAGGAGGUUUAUCGAAUUUUCGGCGGAUGCCUCAAAA [C11U C71A]", "Measurement Kind": "self-cleavage kobs at 2500 uM GlcN6P", "Measurement Unit": "s⁻¹", "Modifier": "=", "Test Value": 0.00024}
{"Sequence Entry": "AUAAAAGCGCCAGAACUACAGAAAUGUAGUUGACGAGGAGAAGGUUUAUCGAAUUUUCGACGUAUGCCUCCAAA [G41A G60A G63U]", "Measurement Kind": "self-cleavage kobs at 2500 uM GlcN6P", "Measurement Unit": "s⁻¹", "Modifier": "<", "Test Value": "1e-05"}
{"Sequence Entry": "AUAAAAGCGCCACAACUACAGAAAUGUAGUUGACGAGGGGGAGGUUUAUCGAAUUUUCGGCGGUUGCCUCCAAA [G13C A39G A64U]", "Measurement Kind": "self-cleavage kobs at 2500 uM GlcN6P", "Measurement Unit": "s⁻¹", "Modifier": "<", "Test Value": "1e-05"}
{"Sequence Entry": "AUAAAAGCGCCAGAACUACAGAAAUGUAGUUGACGAGGAGGAGGUUUAUCUAAUUUUCGGAGGAUGCCUCAAAA [G51U C61A C71A]", "Measurement Kind": "self-cleavage kobs at 2500 uM GlcN6P", "Measurement Unit": "s⁻¹", "Modifier": "<", "Test Value": "1e-05"}
{"Sequence Entry": "AUAAAAGCGCAAGAACUACAGAAAUGUAGUUGACGAGGAGGAGGUUUAUCGAAUUUUCGGCGGAUGCCUCCAAA [C11A]", "Measurement Kind": "self-cleavage kobs at 2500 uM GlcN6P", "Measurement Unit": "s⁻¹", "Modifier": "=", "Test Value": 0.000153}
{"Sequence Entry": "AUAAAAGCGCCAGAACUACAGAAAUGUAGUUGACGAGGAGGAGGUUUAUCGGAUUUUCGGCGGAUGCCUCCAAA [A52G]", "Measurement Kind": "self-cleavage kobs at 2500 uM GlcN6P", "Measurement Unit": "s⁻¹", "Modifier": "=", "Test Value": 0.00127}
